Tested on: SF-268 CNS
Test: NCI tumour cell line growth inhibition, 48 h; in the data active means GI50 below about 0.43 µM; inactive means the rest
Classes used: Yes for active, No for inactive

1. COc1cc(C2c3cc4c(cc3[C@@H](Nc3ccc(C#N)cc3)C3COC(=O)[C@H]23)OCO4)cc(OC)c1O (some centres undefined)    No
2. CN(CCCN)CCCNc1nc2ccccc2c2[nH]c3ccccc3c12    Yes
3. CCCCN1CCN(c2ccc3nc(-c4ccc5nc(-c6ccc(C(F)(F)F)cc6)[nH]c5c4)[nH]c3c2)CC1    No
4. C=C1C(O)C2(O)OCC34C(CC5C(C)=CC(=O)C(O)C5(C)C23)OC(=O)C(OC(=O)C/C=C(\C)CCCCC)C14 (centres undefined)    Yes
5. CN1CCN(CCc2cccc(C(=O)c3cnn(-c4ccc(F)cc4)c3N)c2)CC1    No
6. O=C([O-])c1ccccc1Nc1ccccn1.O=C([O-])c1ccccc1Nc1ccccn1.[Ni+2]    No
7. COc1c(CCC[P+](c2ccccc2)(c2ccccc2)c2ccccc2)cc2c(c1OC)OCO2    No
8. O=C1c2ccccc2-c2c1c1ccccc1c(=O)n2CCCNCCCNCCCn1c2c(c3ccccc3c1=O)C(=O)c1ccccc1-2    Yes
9. CCCC[C@H](NC(=O)[C@H]1CCCN1C)C(=O)N(C)[C@H](C[C@@H](OC(C)=O)c1nc(C(=O)N[C@@H](Cc2ccccc2)C[C@H](C)C(=O)OCC)cs1)C(C)C    Yes

###

Tested on: M19-MEL melanoma
Assay: NCI tumour cell line growth inhibition, 48 h
measured endpoint: TGI

1. N#CC(C(=O)/C(=N/NC(=O)c1ccccc1O)C(C#N)c1ccc(Cl)cc1)c1ccc(Cl)cc1 (stereo not drawn)    55.3 µM
2. Cc1ccc(C(=O)O/N=C2/CCC/C2=C\c2ccccc2)cc1    > 100 µM
3. CC1=NOC(=O)/C1=C/c1ccccc1O    > 100 µM
4. CC(=O)NC(CCCNCc1ccccc1)C(=O)NCc1ccccc1 (stereo not drawn)    > 100 µM
5. CSC1CC2C(CC1(C)O)C2(C)C (stereo not drawn)    > 100 µM
6. CCC(=O)OC[n+]1ccc2c(C)c3[nH]c4ccc(OC)cc4c3c(C)c2c1    1.68 µM
7. CN(C(=O)C12C3C4C5C3C1(C(=O)O)C5C42)C(C)(C)C (stereo not drawn)    > 100 µM
8. CCN(CC)CCn1ccc(=O)c2cc3c(=O)ccn(CCN(CC)CC)c3c(C)c21    25.2 µM
9. CCCc1[nH]nc(CCC(=O)N(Cc2ccccc2)Cc2ccccc2)c1CC    > 100 µM
10. C=CCC1([C@H](C)[C@@H](OC(C)=O)c2cc(OC)c(OC)c(OC)c2)C[C@@H](OC)CCC1=O (stereo partly drawn)    91.3 µM
11. c1cc(-c2cn3ccsc3n2)ccn1    > 100 µM
12. CN(C)C(CN)CC1=C(CC(CN)N(C)C)CCC1 (stereo not drawn)    > 100 µM
13. COc1cccc(NC(=O)CC(=O)N2N=C(N(CCC#N)c3ccc(Cl)cc3)CC2c2ccccc2)c1 (stereo not drawn)    > 100 µM
14. COC(=O)CCC1CCc2c(OC)ccc(O)c2C1=O (stereo not drawn)    > 100 µM
15. C[N+](C)(C)CC(=O)N/N=C(/Cc1nc2c3c(ccc2[nH]c1=O)C(=O)c1ccccc1C3=O)C(=O)Nc1ccc(Cl)c(Cl)c1    > 100 µM
16. O=C(c1ccc(F)cc1)c1cccc(C(=O)c2ccc(F)cc2)n1    > 100 µM
17. COC(=O)c1csnn1    > 100 µM
18. COc1cc(/C=C2\C(=O)N(C(=O)Cc3ccccc3)N=C2C)ccc1O    > 100 µM
